Reported Proxy for plastic degradation values for the following proteins.
Substrate: PET
PROTOCOL SUMMARY: Proxy for plastic degradation [Weight/mass loss]
MEASUREMENT SETUP: pH 8; 60 °C
// units = %; emit number, no label

# annotated cases, reported Proxy for plastic degradation shown
- unnamed (protein) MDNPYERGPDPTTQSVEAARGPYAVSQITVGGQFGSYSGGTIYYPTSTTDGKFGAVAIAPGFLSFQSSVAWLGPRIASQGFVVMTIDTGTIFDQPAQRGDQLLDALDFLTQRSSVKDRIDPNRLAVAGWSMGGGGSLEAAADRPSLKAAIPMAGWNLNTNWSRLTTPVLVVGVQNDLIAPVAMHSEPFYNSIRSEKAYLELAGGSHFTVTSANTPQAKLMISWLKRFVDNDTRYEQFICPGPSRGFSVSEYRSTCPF: 8
- unnamed (protein) MANPYERGPNPTDALLEARSGPFSVSEENVSRLSASGFGGGTIYYPRENNTYGAVAISPGYTGTEASIAWLGERIASHGFVVITIDTITTLDQPDSRAEQLNAALNHMINRASSTVRSRIDSSRLAVMGHSMGGGGSLRLASQRPDLKAAIPLTPWHLNKNWSSVRVPTLIIGADLDTIAPVLTHARPFYNSLPTSISKAYLELDGATHFAPNIPNKIIGKYSVAWLKRFVDNDTRYTQFLCPGPRDGLFGEVEEYRSTCPF: 1
- unnamed (protein) MANPYERGPAPTTSSIEASRGPFAIASVTVSRSSVSGFGGGTIYYPRDTSEGTFGAVAIAPGFTADEGSMAWYGPRIASQGFVVFTIDTITRLDQPDSRGRQLLAALDYLTQRSSVRSRIDSSRLAVMGHSMGGGGSLEASVSRPSLKAAIPLTPWNLKKNWRDVRVPTLIVGAESDSIASVRTHAEPFYESIPSTTNKAYLELNNATHFAPNISNTTIAKYSISWLKRFVDNDTRYEQFLCPPPRPDRDIEEYRSTCPH: 0.5
- unnamed (protein) MDNPYERGPDPTTQSVEAARGPYAVSQITVGGQFGSYSGGTIYYPTSTADGKFGAVAIAPGFLSFQSSVAWLGPRLASQGFVVMTIDTGTIFDQPAQRGDQLLDALDFLTQRSSVKDRIDPNRLAVAGWSMGGGGSLEAAADRPSLKAAIPMAGWNLNTNWSRLTTPVLVVGVQNDLIAPVGSHSEPFYNSIRSEKAYLELAGGSHFTVTSANTPQAKLMISWLKRFVDNDTRYEQFICPGPSRGFSVSEYRSTCPF: 1
- unnamed (protein) MANPYERGPDPTVQSIEAVRGPFSVSETNVSRLVVTGFGGGTIYYPRDTSQGTFGAVAIAPGFTASEGSMAWYGPRIASQGFVVFTIDTLTRLDQPDSRGRQLLAALDYLTQRSSVRSRIDSSRLAVMGHSMGGGGSLEASESRPSLKASIPLTPWNLKKNWRNNRVPTLIVGAENDSIASVRTHAEPFYESIPSTTNKAYLELNNATHFAPNISNTTIAKYSISWLKRFVDNDTRYEQFLCPPPRPDRDIEEYRCTCPY: 0.5

# input for lookup
Problem: Reported Proxy for plastic degradation for unnamed (protein) MENPYERGPDPTTQSVEAARGPYAVSQITVGGQFGSYSGGTIYYPTSTADGKFGAVAIAPGFLSFQSSVAWLGPRIASQGFVVMTIDTGTIFDQPAQRGDQLLDALDFLTQRSSVKDRIDPNRLAVAGWSWGGGGSLEAAADRPSLKAAIPMAGWNLNTNWSRLTTPVLVVGVQNDLIAPVAMHSEPFYNSIRSEKAYLELAGGSHFTVTSANTPQAKLMISWLKRFVDNDTRYEQFICPGPSRGFSVSEYRSTCPY : what is it?
Solution: 0.5
